experiment: Inhibition of IL6 secretion in LPS/IL-1beta-stimulated human U87 cells compound pretreated at 10 uM for 30 mins before stimulation measured after 24 hrs by ELISA; type: functional, U-87MG ATCC; conditions: U-87 MG
READOUT KIND: inhibition at 10 µM (%)
Number only, in %; omit the unit.

Solved entries (count: 8):
O=C(c1ccc(Nc2ccccn2)c(Cl)c1)N1CCC(N2CCCCC2)CC1    46.7
CN1Cc2ccccc2N(C)c2nc(Cl)ncc21    64.6
Cn1cccc1CNc1ccc(C(=O)N2CCC(N3CCCCC3)CC2)cc1Cl    42.4
O=C(c1ccc(Nc2ccccc2)c(Cl)c1)N1CCC(N2CCCCC2)CC1    32.3
CCCNc1ccc(C(=O)N2CCC(N3CCCCC3)CC2)cc1Cl    55.8
CN1C(=O)c2ccccc2N(C)c2nc(Nc3ccc(C(=O)N4CCC(N5CCCCC5)CC4)cc3Cl)ncc21    87.9
Cc1ccc(CNc2ccc(C(=O)N3CCC(N4CCCCC4)CC3)cc2Cl)cc1    36.1
CN1C(=O)c2ccccc2N(C)c2nc(Cl)ncc21    23.2

Please examine the following record next.
Q: Return value of inhibition at 10 µM for input O=C(c1ccc(Nc2ccc([N+](=O)[O-])cc2)c(Cl)c1)N1CCC(N2CCCCC2)CC1 , no commentary.
A: 47.9

Cited source for all entries: ChEMBL document CHEMBL3407393
